Attribute: GI50
# System: SK-MEL-5 melanoma
# experimental.details: NCI tumour cell line growth inhibition, 48 h

Worked set:
C=C1CC[C@@H]2[C@](C)(COC(C)=O)[C@@H](O)CC[C@@]2(C)[C@@H]1COc1ccc2ccc(=O)oc2c1	> 100000 nM
Clc1cc(Cl)c(OCC#CI)cc1Cl	5930 nM
CCN=C1C=CC(=C(c2ccc(N)cc2)c2ccc(N(CC)CC)c(C)c2)C=C1	208 nM
C/C(=N\Nc1ccc2ccccc2n1)c1ccccn1	103 nM
CC(C)(C)c1ccc(OCCCCCCN2CCNCC2)cc1	1870 nM

*Q* GET /values?readout=GI50&item= `N=C(N)c1ccc(N2CCCN(c3ccc(C(=N)N)cc3)CC2)cc1`
*A* 27900 nM

*Q* Same question, `C[C@@H]1CC[C@H]2C(COCCOCC3=C(C(F)(F)F)O[C@@H]4O[C@@]5(C)CC[C@H]6[C@H](C)CC[C@@H]3[C@@]46OO5)=C(C(F)(F)F)O[C@@H]3O[C@@]4(C)CC[C@@H]1[C@]32OO4` this time
*A* 176 nM

*Q* # repeat for `N#Cc1c(N/N=C/c2c(Cl)cccc2Cl)nc(N)nc1N1CCOCC1`
*A* 3710 nM

*Q* Entry `O=C(/C(=C/c1ccccc1)CN1CCCCC1)c1ccccc1` please
*A* 1430 nM

====

# System: IGROV1 ovarian
# experimental.details: NCI tumour cell line growth inhibition, 48 h
Here the recorded TGI is given for each entry.

C=C1CC2OC2(C(=O)O[C@H]2CCC3[C@@H]4CCC5=CC(=O)CC[C@]5(C)C4CC[C@@]32C)C1=O (stereo not given in full)	25.6 µM
CCCCCCCCCCCC(=O)OCCOCCOCCOCCOCCOCc1ccc(OC)cc1	> 100 µM
O=C(NCCCCCCCCNC(=O)c1cc(-c2ccccc2)nc2ccccc12)c1cc(-c2ccccc2)nc2ccccc12	> 100 µM
O=C(Cn1c2c(c3ccccc31)CCCC2)NC1CCCCC1	> 100 µM
CCO[C@]12C[C@H](OC)[C@@]3(O)CC(C1[C@H]3OCc1ccccc1)C13C4C2[C@H](OC)C1[C@](COC)(CN4CC)[C@H](O)C[C@@H]3OC (stereo not given in full)	> 100 µM

*Q* Tell me reported TGI for CCOC(=O)C1Oc2ccc([N+](=O)[O-])c3c2C1(O)CCC3 (stereo not given) , tested with IGROV1 ovarian.
*A* > 100 µM

*Q* Also need C#CCOCC12C=CC(O1)C1C(=O)N(C)C(=O)C12 (stereo not given) , thanks.
*A* > 100 µM

*Q* Same lookup for COC(=O)C1=CSC2(S1)C(C(=O)OC)=CSc1c2ssc1=Nc1ccccc1 (stereo not given) , please.
*A* 4.83 µM

*Q* And the next one, `CN(C)c1ccc(N=Nc2ccc3nc[nH]c3c2)cc1` ?
*A* > 100 µM

*Q* Continue with O=C1C2CC=CCC2C(=O)N1n1c(-c2ccccc2)n[nH]c1=O (stereo not given)
*A* > 100 µM

====

# Tested on: U251 CNS
One label from this list, please: active, inactive

Example entries begin here.
C/C(=N\Nc1ccc2ccccc2n1)c1ccccn1	active
O=C(C1CCCCC1)[C@@H]1[C@]2(C(=O)NC3CCCCC32)[C@@H]2CCCN2[C@@]12C(=O)NC1CCC(Cl)CC12 (stereo not given in full)	inactive
Cc1cc2c3ccc(C)[n+](C)c3ccc2n1C	inactive
Cc1ccc(C2=NOC3=c4ccccc4=CSC3=C2c2ccc([N+](=O)[O-])cc2)cc1	inactive

*Q* Hi, do you know how `N#C/C(=C\c1c(-c2ccccc2)[nH]c2ccccc12)S(=O)(=O)c1ccccc1` came out in this test?
*A* inactive
